# reported inhibition; entries follow
TEST_SYSTEM: Heat shock protein HSP 90-alpha (Homo sapiens) (UniProt P07900)
ASSAY: tumor Hsp90 inhibitors, primary screen, cell lysate, fluorescence polarization, NCI-N417 lysate (AID 429);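 also: 0% = tracer plus lysate wells and 100% = tracer alone without lysate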
MEASUREMENT_SETUP: NCI-N417 lysate Hsp90, Cy3B-geldanamycin FP displacement; at 30 µM; stronger effect = higher value
The campaign covered roughly 64,000 compounds. About 220 (0.34%) were called active. The sample holds actives, similar compounds and a random draw of the others, so the mix is not that of the screen.

MOLECULE	inhibition
Nc1cc(O)cc2cccnc12	150% (active)
CCCC(=O)N1CCc2[nH]c3ccccc3c2C1	-3.78% (inactive)
CC(C)C[C@H](NC(=O)[C@H](O)[C@H](N)Cc1ccccc1)C(=O)O	-2.1% (inactive)
Oc1ccc(Cl)cc1/C=N/c1nc2ccccc2[nH]1	1.09% (inactive)
COc1cc(NCCCC#N)c2ncccc2c1	-2.3% (inactive)
COc1cccc(NC(=O)c2ccccc2SC)c1	-1.59% (inactive)
COc1cccc(Nc2ncccc2C(=O)O)c1	1.09% (inactive)
O=C(CC1CCCCC1)Nc1c2c(nn1-c1ccc(F)cc1)CS(=O)(=O)C2	-1.94% (inactive)
Cc1ccc2[nH]c3c(c2c1)CN(C(=O)CN1CCN(c2ccccc2)CC1)CC3	92.3% (active)
Oc1ccc(Cn2cc[nH]c2=S)cc1	-2.1% (inactive)
Cc1cc2c(cc1C)NC(c1ccccn1)C1=C(CC(C)(C)CC1=O)N2 (stereo not given)	0.74% (inactive)
O=C(NC1CCCCC1)N1CCc2[nH]c3ccccc3c2C1	-4.69% (inactive)
COc1cc(N=C2C=CC(=O)C=C2)c2ncccc2c1	3.25% (inactive)
CCCOC(=O)Cc1c(O)c2ccccc2[nH]c1=O	1.56% (inactive)
COc1cc(NC(C)CCCNC(C)C)c2ncccc2c1 (stereo not given)	95.6% (active)
CSCCC(Nc1nc2ccccc2s1)C(=O)O (stereo not given)	2.67% (inactive)
CC(C)(Oc1ccc(C2CC2(Cl)Cl)cc1)C(=O)O (stereo not given)	1.49% (inactive)
Cc1nn(-c2ccccc2)c(C)c1C(=O)OCC(=O)NC(=O)NC1CCCCC1	-2.89% (inactive)
CC(C)NS(=O)(=O)c1ccc(OCC(=O)Nc2ccc3c(c2)OCCO3)cc1	-7.01% (inactive)
CN(c1ccc(C(=O)NCCC2=CCCCC2)cc1)S(C)(=O)=O	-2.17% (inactive)
C#CCCCNc1cc(OC)cc2cccnc12	-1.17% (inactive)
CCOc1ccccc1C1CC(c2ccccc2)Nc2nc(N)nn21 (stereo not given)	0.5% (inactive)
Nc1ccc2c3c(cccc13)C(=O)NC2=O	7.71% (inactive)
Cc1ccc(-c2nnc(SC(C)C#N)n2N)cc1 (stereo not given)	2.26% (inactive)
CCOC(=O)Nc1ccc2c(c1)N(C(=O)CN1CCN3CCCC3C1)c1ccccc1CC2 (stereo not given)	-6.22% (inactive)
